Tested on: 616215-338-R-J1-PDC complex spheroid viability;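 note: spheroids exposed to compounds for one week before readout; percent viability relative to DMSO vehicle wells taken as 100%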
Assay: Anticancer human tumor 616215-338-R-J1-PDC patient-derived colon adenocarcinoma cell line growth inhibition [POLQ]
Details: second compound 1 µM; first compound 0.1 µM; active compounds read low
Consider the following compounds and their measured viability, T/C readings.

# annotated cases, reported viability, T/C shown
>  <COMPOUND>
Nc1ccn(C2OC(CO)C(O)C2(F)F)c(=O)n1 (stereo not drawn) + Nc1ccc(C#CCN(C(=O)Cc2ncc(C(F)(F)F)cc2C(F)(F)F)c2ccc(F)cc2)nn1

>  <RECORDED_MEASUREMENT>
15.2%

$$$$
>  <COMPOUND>
CCc1cc2c(N3CCc4c(cc(Cn5ccnc5)cc4-c4cn(C)nc4C(F)(F)F)C3=O)ccnc2c(OC)n1 + Cc1cccc(N(C)C(=O)C2C(O)CCN2c2nc(C)cc(C(F)(F)F)c2C#N)c1

>  <RECORDED_MEASUREMENT>
104%

$$$$

Note: attention shifts to another entry.
viability, T/C measured on O=c1[nH]cc(F)c(=O)[nH]1 + Cc1cccc(N(C)C(=O)C2C(O)CCN2c2nc(C)cc(C(F)(F)F)c2C#N)c1 = 99.7%
